Where do the numbers come from? From paper PMC11054274.

# assay info: Cytotoxicity assay on macrophages (resazurin)
# Format: cell-based, murine
# stated conditions: mouse, J774 macrophages, Table S3; 24 h exposure; read-out: Toxicity against J774 macrophages CC50
measured endpoint: CC50 at 24 h (µM)
Answers are plain numbers, in µM.

Look up CC50 at 24 h for this compound: CCCCCCCCCCCCCCCCOP(=O)([O-])OCC[N+](C)(C)C [Miltefosine, reference compound] 136

====

# Tested on: J774 murine macrophages
# assay info: Cytotoxicity assay on macrophages (resazurin)
# Type: cell-based
# stated conditions: Table S2; 24 h exposure; read-out: Toxicity against J774 macrophages CC50
CC50 under 1000 µM gets condition met, anything at or over 1000 µM gets condition not met.

Worked cases, answers included:
# compound, category
data = [
    ("COC(=O)CNC(=O)c1c(-c2ccccc2C)[n+]([O-])c2cc(OC)ccc2[n+]1[O-] [Compound 4k]", "condition met"),
    ("COC(=O)CNC(=O)c1c(-c2ccc(C(F)(F)F)cc2)[n+]([O-])c2ccccc2[n+]1[O-] [Compound 4c]", "condition not met"),
]

Hi there! Is CC50 for COC(=O)CNC(=O)c1c(-c2ccc(C(F)(F)F)cc2)[n+]([O-])c2cc(C)ccc2[n+]1[O-] [Compound 4l] below 1000 µM, do you know? condition not met

// repeat for COC(=O)CNC(=O)c1c(-c2ccc(F)cc2)[n+]([O-])c2cc(C)ccc2[n+]1[O-] [Compound 4m] and report condition met

// repeat for COC(=O)CNC(=O)c1c(-c2ccccc2)[n+]([O-])c2ccccc2[n+]1[O-] [Compound 4a] and report condition met

// repeat for COC(=O)CNC(=O)c1c(-c2ccc(OC)cc2)[n+]([O-])c2ccccc2[n+]1[O-] [Compound 4b] and report condition not met

// repeat for COC(=O)CNC(=O)c1c(-c2ccccc2)[n+]([O-])c2cc(C(F)(F)F)ccc2[n+]1[O-] [Compound 4n] and report condition met
